Tested on: Crude diglycosidase
test description: Examination of pH in the conversion into isoflavone aglycons by diglycosidase using soybean materials
Format: biochemical, Penicillium multicolor IAM7153
applied conditions: pH2, heat treatment of enzyme no, reaction time 1 h, 55° C.
value kind: Decomposition efficiency of glycitin family in roasted soy flour

a = COc1cc2c(=O)c(-c3ccc(O)cc3)coc2cc1O[C@@H]1O[C@H](CO)[C@@H](O)[C@H](O)[C@H]1O
b = COc1cc2c(=O)c(-c3ccc(O)cc3)coc2cc1O
c = COc1cc2c(=O)c(-c3ccc(O)cc3)coc2cc1O[C@@H]1O[C@H](COC(C)=O)[C@@H](O)[C@H](O)[C@H]1O
Give the order of the entries above, sorted from least to greatest Decomposition efficiency of glycitin family in roasted soy flour. The labels, placed in the requested order, form the answer.
b, c, a
(b: 9.4, c: 34.0, a: 56.6)

###

Test system: Crude diglycosidase
test description: Examination of pH in the conversion into isoflavone aglycons by diglycosidase using soybean materials
Format: biochemical, Penicillium multicolor IAM7153
applied conditions: pH3, heat treatment of enzyme no, reaction time 6 h, 55° C.
value kind: Decomposition efficiency of glycitin family in roasted soy flour

a = COc1cc2c(=O)c(-c3ccc(O)cc3)coc2cc1O[C@@H]1O[C@H](COC(C)=O)[C@@H](O)[C@H](O)[C@H]1O
b = COc1cc2c(=O)c(-c3ccc(O)cc3)coc2cc1O
Form field 'greater Decomposition efficiency of glycitin family in roasted soy flour' accepts a or b ; which applies? Refer to your chosen item by its label in the answer.
b

###

Tested on: Crude diglycosidase
test description: Examination of temperature in the conversion into isoflavone aglycons by diglycosidase using soybean materials
Assay type: biochemical, Penicillium multicolor IAM7153
Design: concentration or dose not given beside the values
applied conditions: 55 °C; heat treatment of enzyme: no; 0 h
value kind: Decomposition efficiency of daidzin family in soymilk (%)

[[record]]
smiles_data = "O=c1c(-c2ccc(O)cc2)coc2cc(O[C@@H]3O[C@H](CO)[C@@H](O)[C@H](O)[C@H]3O)ccc12"
reported_result = 34.2


a = O=c1c(-c2ccc(O)cc2)coc2cc(O)ccc12
b = O=C(O)CC(=O)OC[C@H]1O[C@@H](Oc2ccc3c(=O)c(-c4ccc(O)cc4)coc3c2)[C@H](O)[C@@H](O)[C@@H]1O
Form field 'greater Decomposition efficiency of daidzin family in soymilk' accepts a or b ; which applies? Refer to your chosen item by its label in the answer.
b
(b: 57.3%, a: 8.6%)

###

System: Crude diglycosidase
test description: Examination of substrate concentration in the conversion into isoflavone aglycons by diglycosidase using soybean materials;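 note: percent of the isoflavone family total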
Assay type: biochemical, Penicillium multicolor IAM7153
applied conditions: defatted soybean, substrate concentration 10%, heat treatment of enzyme yes, reaction time 6 h
Description: Into 20 mM acetate buffer of pH 4.0 was suspended 0.1 g, 0.25 g, 0.5 g, 1.0 g, or 1.5 g of each of various soybean materials (roasted soy flour (manufactured by Fuji Shokuryo K.K.), soymilk (manufactured by Gitoh Shokuhin K.K.), defatted soybean (manufactured by Fuji Seiyu K.K.), concentrated soybean protein (manufactured by Fuji Seiyu K.K.)). The pH of the suspension was measured and the liquid volume was adjusted to 4.5 mL while the pH was adjusted to 4.0 with 1N hydrochloric acid. […]
value kind: Decomposition efficiency: ratio of each glycoside/aglycon within its isoflavone family (%)

[[record]]
smiles_data = "COc1cc2c(=O)c(-c3ccc(O)cc3)coc2cc1O[C@@H]1O[C@H](COC(=O)CC(=O)O)[C@@H](O)[C@H](O)[C@H]1O"
unit_symbol = "%"
reported_result = 57.6

[[record]]
smiles_data = "COc1cc2c(=O)c(-c3ccc(O)cc3)coc2cc1O"
unit_symbol = "%"
reported_result = 42.4

